System: SNB-75 CNS
Assay: NCI tumour cell line growth inhibition, 48 h
quantity.measured: TGI

[
  {
    "compound": "COC(=O)c1sc(=NC(=S)N2CCCCC2)sc1C(=O)OC",
    "assay.value": "> 100 µM"
  },
  {
    "compound": "Nc1ncnc2c1nc(Cl)n2C1OC(CO)C(O)C1O (stereo not given)",
    "assay.value": "> 56.6 µM"
  },
  {
    "compound": "N#CC(NNC(=O)c1ccccc1O)c1c(O)ccc2ccccc12 (stereo not given)",
    "assay.value": "48.3 µM"
  },
  {
    "compound": "C[n+]1c2ccccc2c(C(=O)Nc2ccc(S(=O)(=O)Nc3ncccn3)cc2)c2ccccc21",
    "assay.value": "> 100 µM"
  },
  {
    "compound": "CCC(=C/[C@H](C)C/C=C/C(C)=C/[C@@H](C)C(=O)[C@@H](C)[C@H](O)[C@@H](C)CC)/C=C/[C@H]1CC=CC(=O)O1",
    "assay.value": "< 0.0012 µM"
  }
]

###

List of TGI values.
Tested on: K-562 leukemia
Experiment: NCI tumour cell line growth inhibition, 48 h

[
  {
    "compound": "C=CCNC1=C2C[C@@H](C)C[C@@H](OC)[C@H](OC(=O)CCN(C)C)[C@H](C)/C=C(\\C)[C@@H](OC(N)=O)[C@H](OC)/C=C\\C=C(/C)C(=O)NC(=CC1=O)C2=O",
    "tgt": "K-562 leukemia",
    "TGI": "> 43.7 µM"
  },
  {
    "compound": "COc1cc(/C=C2/Oc3c(OC)cccc3C2=O)ccc1O",
    "tgt": "K-562 leukemia",
    "TGI": "> 100 µM"
  },
  {
    "compound": "NC(N)=N/N=C(/c1ccccc1)c1ccccc1F",
    "tgt": "K-562 leukemia",
    "TGI": "> 100 µM"
  },
  {
    "compound": "CC[C@@]12CCC(=S)N(CCSc3ccccc3)[C@@H]1c1c(n(S(=O)(=O)c3ccc(OC)cc3)c3ccccc13)CC2",
    "tgt": "K-562 leukemia",
    "TGI": "> 100 µM"
  },
  {
    "compound": "NNC(=O)N/N=C1\\CN(c2ccc(Cl)cc2Cl)C(=O)C(=O)C1c1nc2ccccc2o1 (stereo not drawn)",
    "tgt": "K-562 leukemia",
    "TGI": "> 100 µM"
  },
  {
    "compound": "N#CC(NC(=O)CCl)=C(Cl)Cl",
    "tgt": "K-562 leukemia",
    "TGI": "2.71 µM"
  },
  {
    "compound": "NC(N)=N/N=C/c1c(-c2ccncc2)nc2sc(Cl)cn12",
    "tgt": "K-562 leukemia",
    "TGI": "13.3 µM"
  },
  {
    "compound": "CC1(C)CC[C@]2(C(=O)O)CC[C@]3(C)C(=CC[C@@H]4[C@@]5(C)C/C(=C/c6ccco6)C(=O)C(C)(C)[C@@H]5CC[C@]43C)[C@@H]2C1",
    "tgt": "K-562 leukemia",
    "TGI": "> 100 µM"
  }
]

###

System: SF-268 CNS
Assay: NCI tumour cell line growth inhibition, 48 h
List of GI50 values.

[
  {
    "molecule": "O=C(N/N=C/c1ccc(F)cc1)c1ccc(C(F)(F)F)nc1Nc1cccc(C(F)(F)F)c1",
    "tgt": "SF-268 CNS",
    "GI50": "0.465 µM"
  },
  {
    "molecule": "N#CC(NC(=O)CCl)=C(Cl)Cl",
    "tgt": "SF-268 CNS",
    "GI50": "1.97 µM"
  },
  {
    "molecule": "C#Cc1cccc(NC(=O)C2CCCN(C(=O)CCl)C2)c1 (stereo not drawn)",
    "tgt": "SF-268 CNS",
    "GI50": "> 82.5 µM"
  },
  {
    "molecule": "Clc1ccc2c(NCCCN3CCN(c4nc(N5CCOCC5)nc5ccccc45)CC3)ccnc2c1",
    "tgt": "SF-268 CNS",
    "GI50": "2.21 µM"
  },
  {
    "molecule": "CC1=C(CNO)C2=C(C)C3(CC3)[C@@](C)(O)C(=O)C2=C1",
    "tgt": "SF-268 CNS",
    "GI50": "0.766 µM"
  },
  {
    "molecule": "COc1ccc(/C(C)=C(\\c2ccc(Cl)cc2)c2ccc(OCCN3CCCCCC3)cc2)cc1F",
    "tgt": "SF-268 CNS",
    "GI50": "6.42 µM"
  },
  {
    "molecule": "CCN(CC)CCOc1ccc2c(C)c(C(=O)OC)oc2c1C(=O)/C=C/c1ccc(OC)cc1",
    "tgt": "SF-268 CNS",
    "GI50": "3.75 µM"
  },
  {
    "molecule": "O=c1nc2[nH]c3c(-c4n[nH]c(=O)[nH]c4=O)cccc3c2n[nH]1",
    "tgt": "SF-268 CNS",
    "GI50": "> 100 µM"
  },
  {
    "molecule": "COc1ccc(/C=C/C(C)=N/OCC(=O)Nc2ccc(Cl)cc2)cc1",
    "tgt": "SF-268 CNS",
    "GI50": "4.2 µM"
  },
  {
    "molecule": "COc1cc(OC)cc(-c2ccc(-c3ccc(C(=N)N)cn3)s2)c1",
    "tgt": "SF-268 CNS",
    "GI50": "1.73 µM"
  },
  {
    "molecule": "CCOc1ccc(Nc2nc(-c3c(C)nc4ncccn34)cs2)cc1",
    "tgt": "SF-268 CNS",
    "GI50": "1.53 µM"
  },
  {
    "molecule": "C=C(Cn1c2ccccc2c(=O)c2ccccc21)c1ccc(C(=O)Nc2ccccc2N)cc1",
    "tgt": "SF-268 CNS",
    "GI50": "5.74 µM"
  },
  {
    "molecule": "COc1cc2c(cc1OCCCOc1ccc(-c3cc4ccccc4c4ccccc34)cc1)N=C[C@@H]1CCCN1C2=O",
    "tgt": "SF-268 CNS",
    "GI50": "0.86 µM"
  }
]

###

List of TGI values.
System: HOP-62 NSCLC
Test: NCI tumour cell line growth inhibition, 48 h

[
  {
    "compound": "C#CC#CC#CC#CC#CC#CC#CC#CC[C@@H]1OC[C@@H](COC(=O)O[C@@H](C(=O)O[C@H]2C[C@@]3(O)[C@@H](OC(=O)c4ccccc4)[C@@H]4[C@]5(OC(C)=O)CO[C@@H]5C[C@H](O)[C@@]4(C)C(=O)[C@H](OC(C)=O)C(=C2C)C3(C)C)[C@@H](NC(=O)c2ccccc2)c2ccccc2)O1",
    "TGI": "> 33.3 µM"
  },
  {
    "compound": "Cc1cc2c(cc1Cl)Sc1n[nH]c(=O)n1S2(=O)=O",
    "TGI": "> 100 µM"
  },
  {
    "compound": "COc1ccc2c(c1)CC[C@@H]1C2CC[C@]2(C)C(=C=CP(=O)(O)O)CCC12 (some centres undefined)",
    "TGI": "> 100 µM"
  },
  {
    "compound": "NC(N)=N/N=C(/c1ccccc1)c1ccccc1F",
    "TGI": "18.2 µM"
  }
]

###

List of TGI values.
System: RXF 393 renal
Assay: NCI tumour cell line growth inhibition, 48 h

[
  {
    "compound": "O=c1c2cc(I)ccc2nc(-c2cccs2)n1O",
    "tgt": "RXF 393 renal",
    "value.relation.sign": ">",
    "TGI (µM)": 100
  },
  {
    "compound": "Cn1c(NC(=O)NC23CC4CC(CC(C4)C2)C3)nc2ccccc21",
    "tgt": "RXF 393 renal",
    "value.relation.sign": "=",
    "TGI (µM)": 57.4
  },
  {
    "compound": "O=C(c1ccccc1)C(Br)C(Br)c1ccccc1 (stereo unspecified)",
    "tgt": "RXF 393 renal",
    "value.relation.sign": "=",
    "TGI (µM)": 3.51
  },
  {
    "compound": "CCCCCCCCCCCCC1N=C(N)N2CCCC2=C1C(=O)OC (stereo unspecified)",
    "tgt": "RXF 393 renal",
    "value.relation.sign": "=",
    "TGI (µM)": 69.4
  },
  {
    "compound": "COc1ccc(C(=O)O/N=C2/CCCCC2CN(C)C)cc1 (stereo unspecified)",
    "tgt": "RXF 393 renal",
    "value.relation.sign": ">",
    "TGI (µM)": 100
  },
  {
    "compound": "Fc1ccc(-c2nn3c(COc4ccc(Cl)cc4)nnc3s2)cc1Oc1ccccc1",
    "tgt": "RXF 393 renal",
    "value.relation.sign": "=",
    "TGI (µM)": 87.5
  }
]
